Target: T1, human Trop-2-His protein (human, UniProt P09758 27-274)
T1 construct: extracellular domain; Assay paragraphs say only 'Trop-2-His'; also called hTrop-2; Kactus Cat #TRP-HM121; not shown: His tag
T1 sequence (looked up): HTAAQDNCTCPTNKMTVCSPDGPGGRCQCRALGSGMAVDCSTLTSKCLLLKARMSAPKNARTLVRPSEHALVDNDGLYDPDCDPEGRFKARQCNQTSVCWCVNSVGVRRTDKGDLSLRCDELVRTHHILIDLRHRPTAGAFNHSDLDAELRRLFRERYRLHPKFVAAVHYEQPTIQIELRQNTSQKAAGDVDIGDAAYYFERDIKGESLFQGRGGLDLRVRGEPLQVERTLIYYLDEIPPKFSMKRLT
Test: BLI (Gator Plus), purified Ab on HFC probe
Measured pKd values are reported for all entries that follow.
Scale: pKd equals -log10([C]), with [C] in mol/L.

[Q] Any idea what pKd was measured for 10A9-2 (antibody, V domains shown) VH: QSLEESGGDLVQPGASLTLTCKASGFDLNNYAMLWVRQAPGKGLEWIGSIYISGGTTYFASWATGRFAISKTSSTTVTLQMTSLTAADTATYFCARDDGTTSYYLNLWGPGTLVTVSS VL: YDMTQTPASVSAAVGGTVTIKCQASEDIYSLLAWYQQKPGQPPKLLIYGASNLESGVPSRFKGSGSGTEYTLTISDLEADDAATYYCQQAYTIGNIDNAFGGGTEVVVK ?
[A] 8.58

---
[Q] Looking for the measured pKd of 66A1 (antibody, V domains shown, Rabbit-derived clone; LEM construct: VH + rabbit IgG CH1 + human IgG1 CH2-CH3) VH: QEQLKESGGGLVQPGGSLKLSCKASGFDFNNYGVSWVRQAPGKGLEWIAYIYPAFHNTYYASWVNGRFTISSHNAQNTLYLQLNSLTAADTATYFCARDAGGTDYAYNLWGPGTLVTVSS VL: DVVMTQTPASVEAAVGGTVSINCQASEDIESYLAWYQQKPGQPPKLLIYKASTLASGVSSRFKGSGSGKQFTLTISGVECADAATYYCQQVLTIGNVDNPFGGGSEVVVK , can you help?
[A] 9.60
